Sourced from patent US6624317B1

Test system: Topoisomerase II
PROTOCOL_TEXT: Topoisomerase II activity assay (inhibition of topo II in vitro)
Type: biochemical
TEST_CONDITIONS: NA^1 not active at 50 uM, NA^2 not active at 100 uM
QUANTITY_NAME: Inhibition of Topo II IC100

{"columns": ["COMPOUND", "RECORDED_RESULT"],
 "data": [
  ["COc1cc([C@@H]2c3cc4c(cc3[C@@H](Nc3ccc(N=Cc5ccc(C(=O)O[C@@H](C(=O)O[C@H]6C[C@@]7(O)[C@@H](OC(=O)c8ccccc8)[C@@H]8[C@]9(OC(C)=O)CO[C@@H]9C[C@H](O)[C@@]8(C)C(=O)[C@H](OC(C)=O)C(=C6C)C7(C)C)[C@@H](NC(=O)c6ccccc6)c6ccccc6)cc5)cc3)[C@H]3COC(=O)[C@H]23)OCO4)cc(OC)c1O", "100 µM"],
  ["COc1cc([C@@H]2c3cc4c(cc3[C@@H](Nc3ccc([N+](=O)[O-])cc3)[C@H]3COC(=O)[C@H]23)OCO4)cc(OC)c1O [GL-331, reference compound]", "50 µM"],
  ["COc1cc([C@@H]2c3cc4c(cc3[C@@H](O[C@@H]3O[C@@H]5CO[C@@H](C)O[C@H]5[C@H](O)[C@H]3O)[C@H]3COC(=O)[C@H]23)OCO4)cc(OC)c1O [Etoposide, etoposide, reference compound]", "100 µM"]
]}

// next item, Inhibition of Topo II IC100 requested
Query string: Reported Inhibition of Topo II IC100 for Topoisomerase II, given "COc1cc([C@@H]2c3cc4c(cc3[C@@H](N=Cc3ccc(C(=O)O[C@@H](C(=O)O[C@H]5C[C@@]6(O)[C@@H](OC(=O)c7ccccc7)[C@@H]7[C@]8(OC(C)=O)CO[C@@H]8C[C@H](O)[C@@]7(C)C(=O)[C@H](OC(C)=O)C(=C5C)C6(C)C)[C@@H](NC(=O)c5ccccc5)c5ccccc5)cc3)[C@H]3COC(=O)[C@H]23)OCO4)cc(OC)c1O" ?
Result string: 100 µM
